SYSTEM TESTED: UniProt:P05067
Sequence (P05067 whole entry): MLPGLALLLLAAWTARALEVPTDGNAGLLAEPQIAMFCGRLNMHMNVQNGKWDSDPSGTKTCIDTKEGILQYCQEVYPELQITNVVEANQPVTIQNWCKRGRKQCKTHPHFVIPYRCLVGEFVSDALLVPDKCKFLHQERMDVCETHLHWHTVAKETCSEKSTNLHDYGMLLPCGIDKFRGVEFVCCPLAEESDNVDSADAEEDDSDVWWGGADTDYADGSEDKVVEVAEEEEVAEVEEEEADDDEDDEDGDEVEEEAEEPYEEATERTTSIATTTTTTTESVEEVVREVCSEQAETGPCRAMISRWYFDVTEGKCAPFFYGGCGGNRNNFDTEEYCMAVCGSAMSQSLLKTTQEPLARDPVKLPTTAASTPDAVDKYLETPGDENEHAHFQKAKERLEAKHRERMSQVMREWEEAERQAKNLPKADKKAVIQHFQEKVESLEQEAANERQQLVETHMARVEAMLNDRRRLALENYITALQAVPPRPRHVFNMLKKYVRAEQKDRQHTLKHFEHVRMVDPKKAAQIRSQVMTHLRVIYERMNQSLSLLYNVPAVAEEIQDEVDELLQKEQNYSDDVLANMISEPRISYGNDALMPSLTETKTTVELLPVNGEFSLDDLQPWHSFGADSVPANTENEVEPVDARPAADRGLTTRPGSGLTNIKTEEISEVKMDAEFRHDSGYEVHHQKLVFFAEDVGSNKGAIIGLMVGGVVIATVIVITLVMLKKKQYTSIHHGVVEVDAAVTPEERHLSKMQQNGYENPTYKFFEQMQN
METHOD DESCRIPTION: Inhibition of self-induced amyloid beta (1 to 42) (unknown origin) aggregation after 48 hrs by ThT assay
METRIC NAME: IC50 (µM)

>>> recorded_number("Oc1ccc(/C=C/c2ccc(O)c3ncccc23)cc1")
8.5

###

METHOD DESCRIPTION: Acute toxicity in po dosed KM mouse measured for 14 days
Assay type: organism-based
CONDITION LABEL: in vivo
METRIC NAME: LD50 at 336 h

>>> result("Oc1ccc(/C=C/c2ccc(O)c3ncccc23)cc1")
"> 2000 mg/kg"

###

Test system: Leishmania donovani
METHOD DESCRIPTION: Antileishmanial activity against amastigote form of Leishmania donovani MHOM//IN/80/Dd8 infected in mouse J774A.1 cells after 72 hrs by luciferase reporter gene assay
Format: functional, organism-based
CONDITION LABEL: MHOM//IN/80/Dd8, J774.A1, 72 h
pIC50: −log10 of the molar value.
Below is a list of entries, each paired with its recorded pIC50 value.
METRIC NAME: pIC50

>>> recorded_number("COc1ccc(OC)c(/C=C/NC(=O)c2cc(O)c3cccc(OC)c3n2)c1")
5.43
>>> recorded_number("CCCCCCCCCCCCCCCCOP(=O)([O-])OCC[N+](C)(C)C [MILTEFOSINE]")
4.91
